Test system: human sdLDL
TEST_DESCRIPTION: Copper-induced sdLDL oxidation, TBARS (Example 7)
Type: biochemical
TEST_CONDITIONS: 1 hr
ATTRIBUTE_MEASURED: IC50

Challenge: Look at this compound and give its reported IC50. CC/C=C\C/C=C\C/C=C\C/C=C\C/C=C\CCCC(=O)O [EPA, cis-5,8,11,14,17-eicosapentaenoic acid]
Response given: ~2 µM

Hey, just so you know, these numbers are from patent US20190209506A1.
